target: PI4KIIIβ (Homo sapiens, UniProt Q9UBF8); test: Residence Time Assay (Caliper conditioning assay and jump dilution); assay type: biochemical; details: jump dilution, 2 mM ATP, 1 μM Bodipy-PI
Sequence (Q9UBF8 whole entry): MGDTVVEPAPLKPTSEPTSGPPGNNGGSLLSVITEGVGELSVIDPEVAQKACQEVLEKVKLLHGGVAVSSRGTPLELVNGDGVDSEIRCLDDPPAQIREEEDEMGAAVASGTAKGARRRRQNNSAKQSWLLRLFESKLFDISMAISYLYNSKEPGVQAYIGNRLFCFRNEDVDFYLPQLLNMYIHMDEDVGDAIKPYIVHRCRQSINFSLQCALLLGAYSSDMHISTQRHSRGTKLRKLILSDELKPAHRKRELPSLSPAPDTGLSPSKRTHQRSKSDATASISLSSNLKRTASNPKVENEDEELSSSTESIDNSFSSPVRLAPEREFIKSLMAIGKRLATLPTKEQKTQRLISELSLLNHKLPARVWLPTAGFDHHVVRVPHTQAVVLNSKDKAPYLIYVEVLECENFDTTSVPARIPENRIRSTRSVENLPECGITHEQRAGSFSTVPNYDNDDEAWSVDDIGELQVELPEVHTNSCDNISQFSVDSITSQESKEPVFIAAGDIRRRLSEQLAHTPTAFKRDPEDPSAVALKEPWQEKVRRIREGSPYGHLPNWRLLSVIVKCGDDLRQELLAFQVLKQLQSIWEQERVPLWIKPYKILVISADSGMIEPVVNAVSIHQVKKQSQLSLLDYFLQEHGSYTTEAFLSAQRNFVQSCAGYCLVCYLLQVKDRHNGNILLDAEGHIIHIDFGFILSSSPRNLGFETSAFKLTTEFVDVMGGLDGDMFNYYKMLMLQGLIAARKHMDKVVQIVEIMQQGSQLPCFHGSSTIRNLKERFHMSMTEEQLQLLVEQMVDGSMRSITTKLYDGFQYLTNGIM
Here the recorded residence time is given for each entry.
Report only the number, with the unit min understood.

Before answering, review these 3 worked examples.
CCN(CCO)C(=O)c1cc(-c2c(C)nn3c(NCc4cccc(-c5nccn5C)c4)cc(C(C)(C)O)nc23)ccc1OC | 997
Cc1ccc(-c2c(C)nn3c(NCc4cccc(-c5nccn5C)c4)cc(C(C)(C)O)nc23)cc1C(=O)N(C)CCCO | 542
Cc1ccc(-c2c(C)nn3c(NCc4cccc(-c5nccn5C)c4)cc(C(C)(C)O)nc23)cc1C(=O)N(C)[C@@H](C)CO | 1670

Let's switch to this compound now.
Entry COc1ccc(-c2c(C)nn3c(NCc4cccc(-c5nccn5C)c4)cc(C(C)(C)O)nc23)cc1C(=O)N(C)C1CCOCC1 : residence time on PI4KIIIβ (Homo sapiens, UniProt Q9UBF8) = 528
